# TESTED SYSTEM: HCMV polymerase (Human cytomegalovirus, UniProt P08546)
# Construct: made in house; host or cells: recombinant baculovirus-infected SF-9 cells
# Sequence (P08546 whole entry): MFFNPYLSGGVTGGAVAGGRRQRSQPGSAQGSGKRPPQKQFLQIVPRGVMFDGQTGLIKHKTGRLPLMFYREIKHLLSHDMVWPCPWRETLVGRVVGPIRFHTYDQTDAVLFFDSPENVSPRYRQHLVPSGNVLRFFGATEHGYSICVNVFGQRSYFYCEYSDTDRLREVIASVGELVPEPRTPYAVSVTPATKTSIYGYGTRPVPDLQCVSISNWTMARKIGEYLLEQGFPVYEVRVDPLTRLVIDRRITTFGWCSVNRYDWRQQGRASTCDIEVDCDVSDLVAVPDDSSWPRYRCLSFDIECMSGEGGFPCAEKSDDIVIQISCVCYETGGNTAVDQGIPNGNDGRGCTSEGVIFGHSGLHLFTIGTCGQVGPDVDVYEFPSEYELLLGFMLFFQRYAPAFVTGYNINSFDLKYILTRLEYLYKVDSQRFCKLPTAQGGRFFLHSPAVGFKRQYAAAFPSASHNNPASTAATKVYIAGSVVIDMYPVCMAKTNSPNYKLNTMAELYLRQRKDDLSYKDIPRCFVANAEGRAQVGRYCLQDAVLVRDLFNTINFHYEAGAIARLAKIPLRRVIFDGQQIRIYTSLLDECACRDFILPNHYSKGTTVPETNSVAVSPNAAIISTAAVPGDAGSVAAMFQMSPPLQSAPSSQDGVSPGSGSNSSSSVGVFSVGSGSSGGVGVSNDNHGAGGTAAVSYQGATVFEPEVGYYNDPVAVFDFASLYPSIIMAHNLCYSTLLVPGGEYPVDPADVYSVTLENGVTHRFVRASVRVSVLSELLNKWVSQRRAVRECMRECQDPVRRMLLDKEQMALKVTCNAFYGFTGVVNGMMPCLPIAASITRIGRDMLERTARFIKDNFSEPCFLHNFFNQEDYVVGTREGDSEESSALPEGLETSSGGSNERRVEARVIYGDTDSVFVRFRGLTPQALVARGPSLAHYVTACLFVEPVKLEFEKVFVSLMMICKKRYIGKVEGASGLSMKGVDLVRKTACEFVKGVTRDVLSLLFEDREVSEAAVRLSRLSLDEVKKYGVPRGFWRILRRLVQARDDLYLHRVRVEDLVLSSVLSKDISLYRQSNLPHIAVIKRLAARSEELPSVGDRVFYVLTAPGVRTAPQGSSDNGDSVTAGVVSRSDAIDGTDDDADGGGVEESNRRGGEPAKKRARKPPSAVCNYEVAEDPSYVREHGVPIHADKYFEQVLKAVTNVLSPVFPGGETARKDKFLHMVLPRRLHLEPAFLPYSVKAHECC
# TEST NAME: HCMV polymerase scintillation proximity assay (SPA), modified version
# Format: biochemical
# CONDITION INFO: CMV polymerase; Table 1; modified assay with 4.5 mM DTT, compounds in 100% DMSO; read-out: Antiviral Selective Polymerase IC50 Values, CMV
MEASURED PARAMETER: IC50 (µM)
Report the figure in µM without appending any unit label.

Any idea what IC50 was measured for COc1cc2ncc(C(=O)NCc3ccc(Cl)cc3)c(O)c2cc1OC [Example 61] ?
3.1

Item: O=C(NCc1ccc(Cl)cc1)c1cnc2c(F)cc(S(=O)(=O)NCCN3CCCC3)cc2c1O [Example 203]
38.8

One more compound: O=C(NCc1ccc(Cl)cc1)c1c[nH]c2ccc(/C=C\CO)cc2c1=O [Example 135]
0.78

====

As an illustration, consider measured IC50 for compounds on UniProt P09252.
Sequence (P09252 whole entry): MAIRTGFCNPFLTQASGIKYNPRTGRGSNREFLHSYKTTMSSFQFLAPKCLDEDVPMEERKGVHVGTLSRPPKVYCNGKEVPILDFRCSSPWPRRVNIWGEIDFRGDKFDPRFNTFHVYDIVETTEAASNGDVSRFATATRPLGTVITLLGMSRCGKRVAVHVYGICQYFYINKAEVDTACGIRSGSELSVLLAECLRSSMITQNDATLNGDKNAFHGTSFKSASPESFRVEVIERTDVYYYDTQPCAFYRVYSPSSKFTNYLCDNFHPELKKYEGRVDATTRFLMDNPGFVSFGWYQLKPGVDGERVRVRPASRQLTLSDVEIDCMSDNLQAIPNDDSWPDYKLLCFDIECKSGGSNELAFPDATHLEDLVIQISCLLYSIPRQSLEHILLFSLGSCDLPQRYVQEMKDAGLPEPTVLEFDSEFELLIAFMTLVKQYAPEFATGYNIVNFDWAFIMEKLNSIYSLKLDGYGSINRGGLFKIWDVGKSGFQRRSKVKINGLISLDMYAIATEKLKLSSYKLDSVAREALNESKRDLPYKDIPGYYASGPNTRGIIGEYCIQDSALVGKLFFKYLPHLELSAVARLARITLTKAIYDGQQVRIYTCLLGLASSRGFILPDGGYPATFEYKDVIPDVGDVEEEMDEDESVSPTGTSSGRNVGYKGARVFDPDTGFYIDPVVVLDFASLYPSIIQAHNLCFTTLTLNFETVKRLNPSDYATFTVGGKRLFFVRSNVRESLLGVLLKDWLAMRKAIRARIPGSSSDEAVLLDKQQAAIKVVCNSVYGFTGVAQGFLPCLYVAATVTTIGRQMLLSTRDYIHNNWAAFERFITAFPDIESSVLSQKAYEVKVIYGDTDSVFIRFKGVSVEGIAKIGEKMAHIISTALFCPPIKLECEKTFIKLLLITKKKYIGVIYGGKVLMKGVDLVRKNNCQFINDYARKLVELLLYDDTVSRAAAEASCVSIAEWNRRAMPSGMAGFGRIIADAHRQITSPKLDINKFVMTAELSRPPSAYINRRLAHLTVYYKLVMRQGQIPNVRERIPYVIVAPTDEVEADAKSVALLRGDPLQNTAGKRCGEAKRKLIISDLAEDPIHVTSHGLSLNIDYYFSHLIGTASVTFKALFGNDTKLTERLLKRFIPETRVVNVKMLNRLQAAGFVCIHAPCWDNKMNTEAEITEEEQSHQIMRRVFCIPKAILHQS
Express your answer in µM, writing the number without its unit.

What does the data say about its IC50? Entry: O=C(NCc1ccc(Cl)cc1)c1cnc2ccc(C#CCO)cc2c1O
0.19

What do you have for O=C(NCc1ccc(Cl)cc1)c1cnc2ccc(-c3cccs3)cc2c1O ?
0.64

Now the compound COc1ccc2c(O)c(C(=O)NCc3ccc(Cl)cc3)cnc2c1
0.7

Another: O=C(CBr)OCCCc1cc(F)c2ncc(C(=O)NCc3ccc(Cl)cc3)c(O)c2c1
2.5

====

Exercise: state measured IC50 for each of the molecules provided.
# TESTED SYSTEM: HCMV polymerase (Human cytomegalovirus)
# Construct: made in house; host or cells: recombinant baculovirus-infected SF-9 cells
# TEST NAME: HCMV polymerase scintillation proximity assay (SPA), modified version
# Assay type: biochemical
# CONDITION INFO: CMV polymerase; Table 1; modified assay with 4.5 mM DTT, compounds in 100% DMSO; read-out: Antiviral Selective Polymerase IC50 Values, CMV
State the answer as a number, implicitly in µM.

Which IC50 value is on record for O=C(NCc1ccc(Cl)cc1)c1cnc2c(F)cc(CCCOP(=O)(O)O)cc2c1O ?
9.5

Also, O=C(NCc1ccc(Cl)cc1)c1cnc2c(F)c(Oc3ccc(CO)cc3)c(F)cc2c1O please.
7.8

Check N#CCc1ccc2ncc(C(=O)NCc3ccc(Cl)cc3)c(O)c2c1 too.
12.1

Same for O=C(NCc1ccc(Cl)cc1)c1cnc2cc(C#CCO)ccc2c1O
25.8

Okay, and O=C(NNc1ccc(Cl)cc1)c1cnc2c(F)cccc2c1O ?
7.8

Now consider CC(C)Oc1c(F)cc2c(O)c(C(=O)NCc3ccc(Cl)cc3)cnc2c1F .
10.7

Query O=C(NCc1ccc(Cl)cc1)c1cnc2c(F)cc(S(=O)(=O)NCc3cccnc3)cc2c1O next
17.6

Do the same for O=C(NCc1ccc(Cl)cc1)c1cnc2c(F)cc(S(=O)(=O)NCC3CCCO3)cc2c1O (stereo not drawn) please
41.6

====

# TESTED SYSTEM: HCMV polymerase (Human cytomegalovirus)
# Construct: made in house; host or cells: recombinant baculovirus-infected SF-9 cells
# TEST NAME: HCMV polymerase scintillation proximity assay (SPA), modified version
# Format: biochemical
# CONDITION INFO: CMV polymerase; Table 1; modified assay with 4.5 mM DTT, compounds in 100% DMSO; read-out: Antiviral Selective Polymerase IC50 Values, CMV
Mark each entry yes if its IC50 sits below 10 µM, and no for all others.

hey, is IC50 for CS(=O)(=O)Nc1ccc2ncc(C(=O)NCc3ccc(Cl)cc3)c(O)c2c1 [Example 29] lower than 10 µM or not?
no

Would you mind doing CC(C)(C)O[PH](=O)OCCCc1cc(F)c2ncc(C(=O)NCc3ccc(Cl)cc3)c(O)c2c1 (stereo not drawn) [Example 271] as well?
no

Please answer likewise for C#CCNS(=O)(=O)c1cc(F)c2ncc(C(=O)NCc3ccc(Cl)cc3)c(O)c2c1 [Example 232]
no

Again, but for O=C(NCc1ccc(Cl)cc1)c1cnc2c(F)cc(C#CCCCO)cc2c1O [Example 107]
yes

Same lookup for O=C(NNc1ccc(Cl)cc1)c1cnc2ccc(I)cc2c1O [Example 91] , please.
yes

Please do the same for NC(=S)c1ccc2c(O)c(C(=O)NCc3ccc(Cl)cc3)cnc2c1 [Example 102] as well.
yes

Similarly, O=C(NCc1ccc(Cl)cc1)c1cnc2c(F)cccc2c1O [Example 12] ?
yes

Thanks! And CNS(=O)(=O)c1cc(F)c2ncc(C(=O)NCc3ccc(Cl)cc3)c(O)c2c1 [Example 239] ?
no

Consider next the compound O=C(NCc1ccc(Cl)cc1)c1cnc2c(OCCO)cc(CCCO)cc2c1O [Example 124] in the same way.
yes

====

# TESTED SYSTEM: HCMV polymerase (Human cytomegalovirus)
# Construct: made in house; host or cells: recombinant baculovirus-infected SF-9 cells
# TEST NAME: HCMV polymerase scintillation proximity assay (SPA), modified version
# Format: biochemical
# CONDITION INFO: CMV polymerase; Table 1; modified assay with 4.5 mM DTT, compounds in 100% DMSO; read-out: Antiviral Selective Polymerase IC50 Values, CMV
Hi there, I'd appreciate the recorded IC50 for every entry that follows.
State the answer as a number, implicitly in µM.

For the compound shown here, CCSCCNS(=O)(=O)c1cc(F)c2ncc(C(=O)NCc3ccc(Cl)cc3)c(O)c2c1 [Example 251] , give the reported IC50.
18.7

Try the compound O=C(NCc1ccc(Cl)cc1)c1cnc2c(F)cc(S(=O)(=O)NCc3cccc(OC(F)(F)F)c3)cc2c1O
6.1

Do the same for O=C(O)CCC#Cc1cc(F)c2ncc(C(=O)NCc3ccc(Cl)cc3)c(O)c2c1 please
6.1

Could you do the same for CC(C)C(N)C(=O)OCCCc1cc(F)c2ncc(C(=O)NCc3ccc(Cl)cc3)c(O)c2c1 (stereo not shown) , please?
6.3

====

# TESTED SYSTEM: UniProtKB P09252
Exercise: for every item that follows, state its recorded IC50.
# output: bare number, implied unit nM

What does the record list as IC50 for CC(O)CCc1ccc2ncc(C(=O)NCc3ccc(Cl)cc3)c(O)c2c1 (stereo not drawn) ?
890

Follow-up entry: O=C(NCc1ccc(Cl)cc1)c1cnc2ccc(OCCO)cc2c1O
660

Request: O=C(NNc1ccc(Cl)cc1)c1cnc2c(F)c(F)c(F)cc2c1O
1300

====

# TESTED SYSTEM: HCMV polymerase (Human cytomegalovirus, UniProt P08546)
# Construct: made in house; host or cells: recombinant baculovirus-infected SF-9 cells
# TEST NAME: HCMV polymerase scintillation proximity assay (SPA), modified version
# Type: biochemical
# CONDITION INFO: CMV polymerase; Table 1; modified assay with 4.5 mM DTT, compounds in 100% DMSO; read-out: Antiviral Selective Polymerase IC50 Values, CMV
MEASURED PARAMETER: IC50 (µM)
Give the number; µM is assumed, so skip it.

Query the reported IC50 for HCMV polymerase (Human cytomegalovirus, UniProt P08546); item: Nc1cc(F)c2ncc(C(=O)NCc3ccc(Cl)cc3)c(O)c2c1
13.8

Now this one: Cc1cccc2ncc(C(=O)NCc3ccc(Cl)cc3)c(O)c12
4.6

Further, for CC(C)C(NC(=O)OC(C)(C)C)C(=O)OCCCc1cc(F)c2ncc(C(=O)NCc3ccc(Cl)cc3)c(O)c2c1 (stereo not shown) ?
38.7

CSCCCc1cc(F)c2ncc(C(=O)NCc3ccc(Cl)cc3)c(O)c2c1 ?
1.1

Same question, O=C(NCc1ccc(Cl)cc1)c1cnc2c(F)cc(S(=O)(=O)N(CCO)CCO)cc2c1O this time
18.3

Next compound up: O=C(NCc1ccc(Cl)cc1)c1cnc2ccc(-c3ccccc3)cc2c1O
1

Thanks! And O=C(NCc1ccc(Cl)cc1)c1cnc2c(F)cc(S(=O)(=O)NCC(O)CO)cc2c1O (stereo not shown) ?
21.6

Repeat with O=C(NCc1ccc(Cl)cc1)c1cnc2c(F)cc(S(=O)(=O)NCc3ccc(Cl)cc3F)cc2c1O
9.9

Now this one: O=C(NCc1ccc(Cl)cc1)c1cnc2cc(CCCO)ccc2c1O
2.6

Try this compound too: O=C(O)CCc1cc(F)c2ncc(C(=O)NCc3ccc(Cl)cc3)c(O)c2c1
2.2

Queued: CC(=O)Nc1ccc2c(O)c(C(=O)NCc3ccc(Cl)cc3)cnc2c1
13.5

Now this one: O=C(NCc1ccc(Cl)cc1)c1cnc2c(F)cc(S(=O)(=O)NCc3ccc(-c4csnn4)cc3)cc2c1O
15.1

Also, O=C(NCc1ccc(Cl)cc1)c1cnc2c(F)cc(S(=O)(=O)NCCc3ccccc3)cc2c1O please.
9.6

Try this compound too: O=C(NCc1ccc(Cl)cc1)c1cnc2cc(C(F)(F)F)cc(C(F)(F)F)c2c1O
55.3

Item: O=C(NCc1ccc(Cl)cc1)c1cnc2c(F)cc(S(=O)(=O)NCCc3c[nH]c4ccccc34)cc2c1O [Example 210]
4.8

Please give the result for O=C(NCc1ccc(Cl)cc1)c1cnc2c(F)cc(S(=O)(=O)NCCOc3ccccc3)cc2c1O too.
9.3

Entry to check: O=C(NCc1ccc(Cl)cc1)c1cnc2cc(NS(=O)(=O)Cc3ccccc3)ccc2c1O
17.9

Same read-out for N#CCCCC#Cc1cc(F)c2ncc(C(=O)NCc3ccc(Cl)cc3)c(O)c2c1 ?
7.2

Follow-up entry: O=C(NCc1ccc(Cl)cc1)c1cnc2ccc(S(=O)(=O)Nc3ccnn3-c3ccccc3)cc2c1O
39.7

Input O=C(NCc1ccc(Cl)cc1)c1cnc2cc(NS(=O)(=O)c3ccccc3)ccc2c1O
24.3

Again, but for O=C(NCc1ccc(Cl)cc1)c1cnc2cc3c(cc2c1O)OCO3
4.9

Another compound: O=C(NCc1ccc(Cl)cc1)c1cnc2c(F)cc(CCCCCO)cc2c1O
3.4

Same read-out for O=C(NCc1ccc(Cl)cc1)c1cnc2ccc3ncsc3c2c1O ?
0.29

Also need O=C(NCc1ccc(Cl)cc1)c1cnc2ccc(CCCOP(=O)(O)O)cc2c1O , thanks.
9.8

Follow-up entry: O=C(NCc1ccc(Cl)cc1)c1cnc2ccc(COC(CO)CO)cc2c1O
2.3

Now the same for O=C(NCc1ccc(Cl)cc1)c1cnc2ccc(CO)cc2c1O
7
